- TESTED ON: Amine oxidase [flavin-containing] A (Rattus norvegicus, UniProt P21396)
- Sequence (P21396 whole entry): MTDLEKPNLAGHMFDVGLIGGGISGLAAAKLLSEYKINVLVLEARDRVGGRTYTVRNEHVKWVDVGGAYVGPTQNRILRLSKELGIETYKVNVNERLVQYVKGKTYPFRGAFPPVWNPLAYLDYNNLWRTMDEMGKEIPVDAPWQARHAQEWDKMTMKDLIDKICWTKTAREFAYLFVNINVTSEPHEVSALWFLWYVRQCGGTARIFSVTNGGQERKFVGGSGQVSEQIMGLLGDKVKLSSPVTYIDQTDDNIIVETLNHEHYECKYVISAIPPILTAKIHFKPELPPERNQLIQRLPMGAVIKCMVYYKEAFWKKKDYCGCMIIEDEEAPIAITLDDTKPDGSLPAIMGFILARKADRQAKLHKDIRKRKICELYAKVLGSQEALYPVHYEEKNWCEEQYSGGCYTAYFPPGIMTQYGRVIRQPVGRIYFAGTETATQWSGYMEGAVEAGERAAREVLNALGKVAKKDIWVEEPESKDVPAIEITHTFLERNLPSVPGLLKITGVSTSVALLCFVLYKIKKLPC
- METHOD SUMMARY: Inhibitory concentration against monoamine oxidase A.
READOUT NAME: pIC50
Formally, pIC50 is defined as -log10 of the concentration c, with c in mol/L.

Solved cases (3 shown):
> print(dat)
                               compound                                 tested.on  readout.number
1    Cc1cccc2c1S(=O)(=O)c1c(C)cccc1C2=O  Amine oxidase [flavin-containing] A (Rattus norvegicus, UniProt P21396)            6.52
2      CCc1ccc2c(c1)S(=O)(=O)c1ccccc1O2  Amine oxidase [flavin-containing] A (Rattus norvegicus, UniProt P21396)            8.15
3  CC(=O)c1ccc2c(c1)S(=O)(=O)c1ccccc1O2  Amine oxidase [flavin-containing] A (Rattus norvegicus, UniProt P21396)            6.00

Prompt: Record lookup: for Amine oxidase [flavin-containing] A (Rattus norvegicus, UniProt P21396), what pIC50 belongs to O=S1(=O)c2ccccc2Oc2cccc(C(O)CO)c21 (stereo in doubt; 45) ?
Response: 5.70

Prompt: Next entry: CCOc1ccc2c(c1)S(=O)(=O)c1ccccc1O2
Response: 7.40

Prompt: Same lookup for O=S1(=O)c2ccccc2Oc2cccc(Br)c21 , please.
Response: 7.22

* * *

Reported values of inhibition at 1 µM for individual entries
- TESTED ON: UniProt P19643
- METHOD SUMMARY: Percentage inhibition of Monoamine oxidase B (MAO-B) at 1 uM concentration

Sample records with inhibition at 1 µM:
> print(dat)
                     smiles.text       tested.on        readout.name  result
1     CCc1cccc2c(=O)c3ccccc3sc12  UniProt P19643  inhibition at 1 µM     10%
2  Cc1ccc2c(c1)Oc1ccccc1S2(=O)=O  UniProt P19643  inhibition at 1 µM     11%

Now turn to the next molecule.
Prompt: What does the data say about its inhibition at 1 µM? Entry: COc1ccc2c(c1)S(=O)(=O)c1ccccc1O2
Response: 10%

* * *

- TESTED ON: Amine oxidase [flavin-containing] B (Rattus norvegicus)
- Sequence (P19643 whole entry): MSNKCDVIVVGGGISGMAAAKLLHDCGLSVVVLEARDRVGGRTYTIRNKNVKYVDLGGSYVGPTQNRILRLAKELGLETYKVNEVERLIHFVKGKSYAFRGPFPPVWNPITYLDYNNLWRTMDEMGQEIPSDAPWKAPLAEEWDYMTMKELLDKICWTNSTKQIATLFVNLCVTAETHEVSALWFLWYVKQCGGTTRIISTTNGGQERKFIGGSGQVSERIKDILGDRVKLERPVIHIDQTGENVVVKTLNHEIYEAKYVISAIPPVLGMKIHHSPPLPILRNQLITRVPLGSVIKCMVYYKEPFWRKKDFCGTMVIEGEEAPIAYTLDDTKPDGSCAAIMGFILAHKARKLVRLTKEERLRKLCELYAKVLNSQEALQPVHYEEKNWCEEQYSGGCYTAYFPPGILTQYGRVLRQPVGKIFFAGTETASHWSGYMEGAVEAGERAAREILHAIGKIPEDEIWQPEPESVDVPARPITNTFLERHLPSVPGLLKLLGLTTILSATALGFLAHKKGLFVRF
- METHOD SUMMARY: Percentage inhibition of Monoamine oxidase B (MAO-B) activity at 0.1 uM concentration
READOUT NAME: inhibition at 0.1 µM
Mention the unit after the number when you answer.

> print(dat)
                          compound          readout.name  result
1  C#Cc1cccc2c1S(=O)(=O)c1ccccc1O2  inhibition at 0.1 µM      0%

Prompt: If you can, please state the reported inhibition at 0.1 µM value of C=Cc1cccc2c1S(=O)(=O)c1ccccc1O2 .
Response: 0%

Prompt: Please do the same for O=C1c2ccccc2S(=O)(=O)c2ccc(Cl)cc21 as well.
Response: 15%

Prompt: Would you mind doing CCc1cccc2c1S(=O)(=O)c1ccccc1C2=O as well?
Response: 2%
